Test system: MDCK
Assay: Antiviral activity of compound was tested against morphology virus infec+ted MDCK cell lines.
Type: functional
Conditions: Canis lupus familiaris
readout.kind: MIC50

Example compounds with recorded MIC50:
In [3]: df
Out[3]:
                                   compound  experimental_result
0  CN1CCCCC12C1CC3CC(C1)CC2C3 (configuration not stated)          > 250 µg/mL
1  NC(=O)c1ncn([C@@H]2O[C@H](CO)[C@@H](O)[C@H]2O)n1          > 250 µg/mL
2                     NC12CC3CC(CC(C3)C1)C2          > 250 µg/mL
3  CCCCN1CCCC1C12CC3CC(CC(C3)C1)C2 (configuration not stated)            250 µg/mL
4  CC(C)(C)C1CCCN1CC12CC3CC(CC(C3)C1)C2 (configuration not stated)          > 250 µg/mL

Query block: Report measured MIC50 on MDCK; entry: "C1CCC2(C1)CCCN2CC12CC3CC(CC(C3)C1)C2"
Result block: > 250 µg/mL

Query block: Provide MIC50, system MDCK, entry CCN1CCCC1C12CC3CC(CC(C3)C1)C2 (configuration not stated)
Result block: 250 µg/mL

Query block: Give MIC50 only, for "C1CCC2(CC1)CCCN2CC12CC3CC(CC(C3)C1)C2" , using MDCK data.
Result block: > 250 µg/mL

Query block: Give reported MIC50 for "CC1(C)CCCN1CC12CC3CC(CC(C3)C1)C2" (MDCK)
Result block: > 250 µg/mL

Query block: # return MIC50 of C1COCC2(N1)C1CC3CC(C1)CC2C3 (configuration not stated) (system: MDCK)
Result block: > 250 µg/mL

Query block: Report its MIC50 with MDCK as the test system: "NC1(C23CC4CC(CC(C4)C2)C3)CCCC1"
Result block: > 250 µg/mL

Query block: // fetch MIC50 for C1CCC2(NC1)C1CC3CC(C1)CC2C3 (configuration not stated) ; system: MDCK
Result block: > 250 µg/mL

====

Test system: HeLa
Test: Antiviral activity of compound was tested against morphology virus infected HeLa cell lines.
Format: functional
Details: Homo sapiens
MIC50 values by entry

>>> print(df.to_string())
                                   compound  readout_kind  experimental_result
0  CN(C)CC1CCN(C23CC4CC(CC(C4)C2)C3)C1 (centres undefined)         MIC50            400 µg/mL
1  CN(C)CC1CCCN1C12CC3CC(CC(C3)C1)C2 (centres undefined)         MIC50          > 400 µg/mL
2  CN1CCOCC12C1CC3CC(C1)CC2C3 (centres undefined)         MIC50          > 400 µg/mL

We next turn to a different compound, shown below.
Query block: Supply recorded MIC50 for CCN1CCOCC12C1CC3CC(C1)CC2C3 (centres undefined) here.
Result block: > 400 µg/mL

====

Tested on: HEF
Experiment: Effects on cell morphology of HEF cell lines.
Assay type: functional
Conditions: Homo sapiens
Parameter MIC50: see the listing below.
Respond numerically; units are µg/mL and should not be typed.

Some compounds with known MIC50 results, for comparison:
>>> print(df.to_string())
                                   compound  experimental_result
0  CCN1CCCCC12C1CC3CC(C1)CC2C3 (stereo not given)                  100
1          CC1(C)CCCN1CC12CC3CC(CC(C3)C1)C2                  100
2  C1CCC2(NC1)C1CC3CC(C1)CC2C3 (stereo not given)                  400

Let us move to another entry and its MIC50.
Query block: For the compound CN1CCCC1C12CC3CC(CC(C3)C1)C2 (stereo not given) , give its measured MIC50 value.
Result block: 200

====

Tested on: HEL
Assay: Inhibition of HEL cell proliferation.
Type: functional
Conditions: Homo sapiens
readout.kind: MIC50

Worked cases, answers included:
>>> print(df.to_string())
                                   compound  experimental_result
0      C1CCC2(C1)CCCN2CC12CC3CC(CC(C3)C1)C2           > 50 µg/mL
1  CN1CCCC1C12CC3CC(CC(C3)C1)C2 (stereo not drawn)           > 50 µg/mL

Query block: Item C1CNC(C23CC4CC(CC(C4)C2)C3)C1 (stereo not drawn) : provide MIC50
Result block: > 50 µg/mL

Query block: Indicate its recorded MIC50; the compound in question is C1COCC2(N1)C1CC3CC(C1)CC2C3 (stereo not drawn)
Result block: > 50 µg/mL

Query block: Give MIC50 for the following compound: "CNC1(C23CC4CC(CC(C4)C2)C3)CCCC1"
Result block: > 50 µg/mL

====

Tested on: CCRF-CEM
Assay: Antiviral activity of compound was tested against HIV-1 virus infected CEM cell lines.
Type: functional
Settings: Homo sapiens
readout.kind: MIC50 (µg/mL)
Numbers only; they are read as µg/mL.

Completed entries (count: 2):
>>> df
                                   molecule  readout_units  experimental_result
0  CN(C)CC1CCCN1C12CC3CC(CC(C3)C1)C2 (centres undefined)          µg/mL                  115
1  CN1CCOCC12C1CC3CC(C1)CC2C3 (centres undefined)          µg/mL                  158

Query block: Consider the molecule CCN1CCOCC12C1CC3CC(C1)CC2C3 (centres undefined) and give its recorded MIC50.
Result block: 158

====

Reported MIC50 values for the following compounds.
System: Human alphaherpesvirus 3
Experiment: Antiviral activity against TK+VZV virus infected HEL cell lines.
Assay type: functional

Some solved cases for reference:
>>> df
                                   compound  readout_kind  experimental_result
0  CCN1CCCCC12C1CC3CC(C1)CC2C3 (stereo not drawn)         MIC50           > 50 µg/mL
1  CCN1CCCC1C12CC3CC(CC(C3)C1)C2 (stereo not drawn)         MIC50           > 50 µg/mL

Proceed to the following item.
Query block: Answer with the recorded MIC50 for the compound listed here: CN1CCCCC12C1CC3CC(C1)CC2C3 (stereo not drawn)
Result block: > 50 µg/mL

====

System: HeLa
Test: Effects on cell morphology of HeLa cell lines.
Assay type: functional
Conditions: Homo sapiens
readout.kind: MIC50

>>> print(df.to_string())
                                compound  readout_kind  experimental_result
0  C1CCC2(CC1)CCCN2CC12CC3CC(CC(C3)C1)C2         MIC50            200 µg/mL

Consider now this further compound.
Query block: Give MIC50 only, for NC(=O)c1ncn([C@@H]2O[C@H](CO)[C@@H](O)[C@H]2O)n1 [RIBAVIRIN] , using HeLa data.
Result block: > 400 µg/mL

====

Test: Antiviral activity against influenza A,H3N2 virus infected MDCK cell lines.
Type: functional
readout.kind: MIC50

Look over these answered cases.
                                   molecule  experimental_result
0  CCN1CCCCC12C1CC3CC(C1)CC2C3 (stereo unspecified)           > 65 µg/mL
1        CN(C)C1(C23CC4CC(CC(C4)C2)C3)CCCC1          > 100 µg/mL
2  CC(N)C12CC3CC(CC(C3)C1)C2 (stereo unspecified)           > 12 µg/mL
3  CCCCN1CCCC1C12CC3CC(CC(C3)C1)C2 (stereo unspecified)          > 100 µg/mL

Query block: Give the measured MIC50 for "CC1(C)CCCN1CC12CC3CC(CC(C3)C1)C2"
Result block: > 87 µg/mL

Query block: Report MIC50 for "C1CCC2(C1)CCCN2CC12CC3CC(CC(C3)C1)C2"
Result block: > 47 µg/mL

====

Tested on: MDCK
Assay: Antiviral activity of compound was tested against morphology virus infec+ted MDCK cell lines.
Assay type: functional
Settings: Canis lupus familiaris
readout.kind: MIC50 (µg/mL)
Report as a plain number; the unit µg/mL is understood.

>>> df
                                   molecule  experimental_result
0  CN1CCCC1C12CC3CC(CC(C3)C1)C2 (stereo not given)                  250

Now for another entry.
Query block: Give reported MIC50 value for CC(N)C12CC3CC(CC(C3)C1)C2 (stereo not given) [RIMANTADINE]
Result block: 250
